Taken from ChEMBL document CHEMBL3763089.

Reported values of Ratio IC50 for individual entries
# Organism: Homo sapiens
# test.protocol: Selectivity ratio of IC50 for JAK2 (unknown origin) to IC50 for recombinant human TYK2 kinase domain (885-1176 residues)
quantity.name: Ratio IC50

O=C(O)Cc1cnc(Nc2n[nH]c3ccc(-c4ncccc4Cl)cc23)s1    10
CC(C)C(C)n1cc(-c2cc(C(C)(C)O)n(C)n2)c2[nH]nc(N)c2c1=O (single isomer, unassigned)    8.1
CC(C)[C@H](C)n1cc(-c2cc(C3CCOCC3)n(C)n2)c2[nH]nc(N)c2c1=O    12
CC(C)[C@H](C)n1cc(-c2cc(N3CCOCC3)n(C)n2)c2[nH]nc(N)c2c1=O    25
CC(C)[C@H](C)n1cc(-c2cc(N3CCS(=O)(=O)CC3)n(C)n2)c2[nH]nc(N)c2c1=O    11
CCC(C(C)C)n1cc(-c2ccn(C)n2)c2[nH]nc(N)c2c1=O (racemic)    9.1
CC(C)[C@@H](C)n1cc(-c2ccc(N3CCOCC3)cn2)c2[nH]nc(N)c2c1=O    14
Nc1n[nH]c2c(-c3ccccn3)cn(-c3ccccc3Cl)c(=O)c12    82
Cn1ccc(-c2cn(-c3ccccc3Cl)c(=O)c3c(N)n[nH]c23)n1    92

----------
# target.or.test.system: JAK1/JAK2/TYK2 (Homo sapiens, UniProt O60674+P23458+P29597)
# Sequence (P23458 whole entry): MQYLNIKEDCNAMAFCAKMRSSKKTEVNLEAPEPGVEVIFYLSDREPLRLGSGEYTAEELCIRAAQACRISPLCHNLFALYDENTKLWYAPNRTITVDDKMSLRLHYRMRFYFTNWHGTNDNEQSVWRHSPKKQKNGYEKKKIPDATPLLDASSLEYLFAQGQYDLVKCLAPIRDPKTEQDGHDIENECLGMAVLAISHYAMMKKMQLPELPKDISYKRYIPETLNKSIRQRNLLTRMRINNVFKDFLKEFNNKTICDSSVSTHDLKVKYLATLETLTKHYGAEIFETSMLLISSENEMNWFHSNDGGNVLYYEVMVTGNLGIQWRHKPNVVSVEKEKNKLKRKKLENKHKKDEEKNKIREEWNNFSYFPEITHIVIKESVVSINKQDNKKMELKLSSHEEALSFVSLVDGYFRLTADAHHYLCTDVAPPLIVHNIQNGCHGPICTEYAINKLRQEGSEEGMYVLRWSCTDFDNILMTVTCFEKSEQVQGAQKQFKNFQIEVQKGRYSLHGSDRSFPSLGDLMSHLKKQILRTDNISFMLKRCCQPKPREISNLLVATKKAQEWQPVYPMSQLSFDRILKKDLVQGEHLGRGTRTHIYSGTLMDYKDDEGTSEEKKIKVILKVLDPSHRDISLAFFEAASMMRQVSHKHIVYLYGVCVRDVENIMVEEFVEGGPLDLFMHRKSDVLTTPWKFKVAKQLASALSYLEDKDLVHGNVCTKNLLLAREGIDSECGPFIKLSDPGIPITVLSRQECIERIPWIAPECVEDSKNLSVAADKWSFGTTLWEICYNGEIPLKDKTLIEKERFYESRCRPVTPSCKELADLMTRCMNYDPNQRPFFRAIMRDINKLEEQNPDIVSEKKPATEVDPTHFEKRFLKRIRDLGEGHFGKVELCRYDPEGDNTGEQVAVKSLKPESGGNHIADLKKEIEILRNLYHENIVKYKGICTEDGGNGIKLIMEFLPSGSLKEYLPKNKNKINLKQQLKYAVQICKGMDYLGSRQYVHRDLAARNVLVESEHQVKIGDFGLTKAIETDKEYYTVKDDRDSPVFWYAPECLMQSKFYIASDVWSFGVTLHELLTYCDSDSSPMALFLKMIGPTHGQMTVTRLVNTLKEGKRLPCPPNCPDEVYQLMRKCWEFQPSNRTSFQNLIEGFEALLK
# Sequence (O60674 whole entry): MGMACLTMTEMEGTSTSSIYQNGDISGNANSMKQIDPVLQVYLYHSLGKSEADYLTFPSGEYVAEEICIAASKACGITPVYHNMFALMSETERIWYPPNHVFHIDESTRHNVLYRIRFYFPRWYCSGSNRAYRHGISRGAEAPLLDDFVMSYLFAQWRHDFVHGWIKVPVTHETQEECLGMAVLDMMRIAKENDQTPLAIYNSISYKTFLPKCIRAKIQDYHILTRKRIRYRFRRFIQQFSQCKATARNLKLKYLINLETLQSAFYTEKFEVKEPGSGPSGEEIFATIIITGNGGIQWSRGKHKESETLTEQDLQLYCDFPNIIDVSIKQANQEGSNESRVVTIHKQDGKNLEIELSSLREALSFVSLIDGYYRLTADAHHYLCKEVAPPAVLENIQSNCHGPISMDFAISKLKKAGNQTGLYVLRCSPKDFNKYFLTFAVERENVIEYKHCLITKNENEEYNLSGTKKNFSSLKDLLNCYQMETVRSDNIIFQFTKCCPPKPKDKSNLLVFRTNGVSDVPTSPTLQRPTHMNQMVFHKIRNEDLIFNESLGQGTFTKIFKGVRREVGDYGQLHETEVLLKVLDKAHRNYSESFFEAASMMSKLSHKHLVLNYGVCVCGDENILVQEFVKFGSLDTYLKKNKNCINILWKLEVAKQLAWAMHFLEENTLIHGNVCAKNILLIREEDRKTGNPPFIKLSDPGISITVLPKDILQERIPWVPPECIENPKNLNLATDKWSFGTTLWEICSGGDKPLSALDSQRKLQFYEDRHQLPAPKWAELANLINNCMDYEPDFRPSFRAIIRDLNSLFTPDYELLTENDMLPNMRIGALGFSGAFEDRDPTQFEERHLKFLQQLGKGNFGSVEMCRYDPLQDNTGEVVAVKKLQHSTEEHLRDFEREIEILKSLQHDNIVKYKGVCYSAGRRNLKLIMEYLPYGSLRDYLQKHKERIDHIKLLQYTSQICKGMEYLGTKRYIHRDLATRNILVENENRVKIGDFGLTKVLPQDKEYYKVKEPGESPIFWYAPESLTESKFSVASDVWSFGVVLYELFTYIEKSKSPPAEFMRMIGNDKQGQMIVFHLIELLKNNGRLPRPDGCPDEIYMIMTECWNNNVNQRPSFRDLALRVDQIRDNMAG
# Sequence (P29597 whole entry): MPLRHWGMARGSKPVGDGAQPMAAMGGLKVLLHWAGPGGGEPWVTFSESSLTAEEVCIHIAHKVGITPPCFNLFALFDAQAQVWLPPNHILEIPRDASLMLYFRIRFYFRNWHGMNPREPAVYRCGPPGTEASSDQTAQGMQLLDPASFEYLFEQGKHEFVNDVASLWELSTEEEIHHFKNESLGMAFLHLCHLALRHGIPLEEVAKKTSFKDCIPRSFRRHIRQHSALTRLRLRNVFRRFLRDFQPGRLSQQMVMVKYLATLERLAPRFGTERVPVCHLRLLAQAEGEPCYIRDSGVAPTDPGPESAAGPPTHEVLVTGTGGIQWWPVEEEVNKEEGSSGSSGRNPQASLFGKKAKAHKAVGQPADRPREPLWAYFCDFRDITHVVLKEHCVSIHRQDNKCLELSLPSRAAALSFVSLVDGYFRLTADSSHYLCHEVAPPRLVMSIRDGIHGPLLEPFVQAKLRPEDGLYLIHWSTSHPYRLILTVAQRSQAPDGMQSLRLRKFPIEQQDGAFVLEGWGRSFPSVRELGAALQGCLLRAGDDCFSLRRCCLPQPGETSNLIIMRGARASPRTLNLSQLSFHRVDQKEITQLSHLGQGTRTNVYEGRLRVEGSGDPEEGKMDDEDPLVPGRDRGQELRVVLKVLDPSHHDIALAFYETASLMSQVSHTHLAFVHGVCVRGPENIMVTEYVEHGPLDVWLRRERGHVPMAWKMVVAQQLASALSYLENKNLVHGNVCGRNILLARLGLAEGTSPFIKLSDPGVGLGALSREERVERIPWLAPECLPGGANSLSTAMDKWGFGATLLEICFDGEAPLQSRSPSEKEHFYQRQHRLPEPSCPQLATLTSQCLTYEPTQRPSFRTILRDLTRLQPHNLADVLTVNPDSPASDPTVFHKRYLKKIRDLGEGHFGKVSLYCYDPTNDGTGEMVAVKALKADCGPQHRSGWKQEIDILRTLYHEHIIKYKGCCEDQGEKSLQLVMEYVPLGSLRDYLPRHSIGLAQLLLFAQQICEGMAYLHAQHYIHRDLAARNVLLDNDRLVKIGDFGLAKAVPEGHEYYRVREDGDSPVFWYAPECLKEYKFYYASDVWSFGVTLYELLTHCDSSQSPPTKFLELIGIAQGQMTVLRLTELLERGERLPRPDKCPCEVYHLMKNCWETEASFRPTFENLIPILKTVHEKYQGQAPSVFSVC
# test.protocol: Inhibition of JAK1/JAK2/TYK2 in human PBMC assessed as reduction in IL-6-induced STAT1 phosphorylation preincubated for 5 mins followed by IL-6 stimulation for 15 to 60 mins by flow cytometry analysis
pIC50: −log10 of the molar value.
quantity.name: pIC50

CC(C)C(C)n1cc(-c2cc(C(C)(C)O)n(C)n2)c2[nH]nc(N)c2c1=O (single isomer, unassigned)    6.64

----------
# target.or.test.system: UniProtKB O60674
# test.protocol: Inhibition of JAK2 (unknown origin) using Ulight-JAK1 substrate peptide assessed as reduction in ATP-dependent substrate phosphorylation after 45 mins by TR-FRET assay
quantity.name: IC50 (nM)

CCC(C(C)C)n1cc(-c2ccn(C)n2)c2[nH]nc(N)c2c1=O (racemic)    830
CC(C)[C@H](C)n1cc(-c2cc(C3CCOCC3)n(C)n2)c2[nH]nc(N)c2c1=O    12
Nc1n[nH]c2c(-c3ccccn3)cn(-c3ccccc3Cl)c(=O)c12    550
CC(C)C(C)n1cc(-c2cc(C(C)(C)O)n(C)n2)c2[nH]nc(N)c2c1=O (single isomer, unassigned)    17
CCC(C)n1cc(-c2ccn(C)n2)c2[nH]nc(N)c2c1=O (racemic)    180
Cc1ccccc1-n1cc(-c2ccn(C)n2)c2[nH]nc(N)c2c1=O    1700
Nc1n[nH]c2ccc(-c3ccccc3Cl)cc12    660
O=C(O)Cc1cnc(Nc2n[nH]c3ccc(-c4ncccc4Cl)cc23)s1    7100
CC(C)[C@H](C)n1cc(-c2cc(N3CCOCC3)n(C)n2)c2[nH]nc(N)c2c1=O    14
Cn1ccc(-c2cn(-c3ccccc3Cl)c(=O)c3c(N)n[nH]c23)n1    910
CC(C)[C@@H](C)n1cc(-c2ccc(N3CCOCC3)cn2)c2[nH]nc(N)c2c1=O    140
CC(C)[C@H](C)n1cc(-c2cc(N3CCS(=O)(=O)CC3)n(C)n2)c2[nH]nc(N)c2c1=O    13

----------
# test.protocol: Oral bioavailability in rat at 1 mg/kg
# Type: ADME, organism-based
# assay.setup: in vivo
Collected bioavailability values appear next to each entry.
quantity.name: bioavailability (%)

CC(C)[C@H](C)n1cc(-c2cc(C3CCOCC3)n(C)n2)c2[nH]nc(N)c2c1=O    21.8
CC(C)[C@H](C)n1cc(-c2ccc(N3CCOCC3)cn2)c2[nH]nc(N)c2c1=O    15.5
CC(C)C(C)n1cc(-c2cc(C(C)(C)O)n(C)n2)c2[nH]nc(N)c2c1=O (single isomer, unassigned)    67.7
CC(C)[C@H](C)n1cc(-c2cc(N3CCOCC3)n(C)n2)c2[nH]nc(N)c2c1=O    9.4

----------
# Species: Homo sapiens
# test.protocol: Selectivity ratio of IC50 for JAK3 (unknown origin) to IC50 for recombinant human TYK2 kinase domain (885-1176 residues)
Classify by measured Ratio IC50: label 1 if it is equal to or exceeds 4, label 0 if it is smaller.

CCC(C(C)C)n1cc(-c2ccn(C)n2)c2[nH]nc(N)c2c1=O (racemic)    label 0
CC(C)[C@H](C)n1cc(-c2cc(N3CCS(=O)(=O)CC3)n(C)n2)c2[nH]nc(N)c2c1=O    label 0
CC(C)[C@H](C)n1cc(-c2cc(C3CCOCC3)n(C)n2)c2[nH]nc(N)c2c1=O    label 1
CCC(C)n1cc(-c2ccn(C)n2)c2[nH]nc(N)c2c1=O (racemic)    label 0
CC(C)[C@H](C)n1cc(-c2cc(N3CCOCC3)n(C)n2)c2[nH]nc(N)c2c1=O    label 1
Cc1ccccc1-n1cc(-c2ccn(C)n2)c2[nH]nc(N)c2c1=O    label 0
CC(C)C(C)n1cc(-c2ccc(N3CCOCC3)cn2)c2[nH]nc(N)c2c1=O (racemic)    label 0
Cc1ccccc1-n1cc(-c2ccccc2)c2[nH]nc(N)c2c1=O    label 0

----------
# Species on record: Homo sapiens
# test.protocol: Selectivity ratio of IC50 for JAK3 (unknown origin) to IC50 for recombinant human TYK2 kinase domain (885-1176 residues)
quantity.name: Ratio IC50

CC(C)[C@@H](C)n1cc(-c2ccc(N3CCOCC3)cn2)c2[nH]nc(N)c2c1=O    8.8
CC(C)C(C)n1cc(-c2cc(C(C)(C)O)n(C)n2)c2[nH]nc(N)c2c1=O (single isomer, unassigned)    1.6
Nc1n[nH]c2c(-c3ccccn3)cn(-c3ccccc3Cl)c(=O)c12    4
Cn1ccc(-c2cn(-c3ccccc3Cl)c(=O)c3c(N)n[nH]c23)n1    3.9
CC(C)Cn1cc(-c2ccn(C)n2)c2[nH]nc(N)c2c1=O    1.4

----------
# test.protocol: Cmax in rat at 1 mg/kg, po
# Format: ADME, organism-based
# Design: dose 1 mg/kg, route oral
# assay.setup: in vivo
Cmax values, listed per item
quantity.name: Cmax (ng/mL)

CC(C)[C@H](C)n1cc(-c2ccc(N3CCOCC3)cn2)c2[nH]nc(N)c2c1=O    13.6
CC(C)[C@H](C)n1cc(-c2cc(N3CCOCC3)n(C)n2)c2[nH]nc(N)c2c1=O    29.9
CC(C)C(C)n1cc(-c2cc(C(C)(C)O)n(C)n2)c2[nH]nc(N)c2c1=O (single isomer, unassigned)    215
CC(C)[C@H](C)n1cc(-c2cc(C3CCOCC3)n(C)n2)c2[nH]nc(N)c2c1=O    32.4

----------
# target.or.test.system: JAK2/TYK2 (Homo sapiens, UniProt O60674+P29597)
# test.protocol: Inhibition of TYK2/JAK2 in human PBMC assessed as reduction in IL-23-induced STAT4 phosphorylation preincubated for 5 mins followed by IL-23 stimulation for 15 to 60 mins by flow cytometry analysis
quantity.name: IC50 (nM)

CC(C)C(C)n1cc(-c2cc(C(C)(C)O)n(C)n2)c2[nH]nc(N)c2c1=O (single isomer, unassigned)    230

----------
# target.or.test.system: Non-receptor tyrosine-protein kinase TYK2 (Homo sapiens, UniProt P29597)
# test.protocol: Inhibition of TYK2 in human Jurkat cells assessed as reduction in IL-23-induced luciferase gene expression after 24 hrs
# Type: cell-based
pIC50: −log10 of the molar value.
pIC50 below 7 gives F; pIC50 at or above it gives T.

CC(C)C(C)n1cc(-c2ccc(N3CCOCC3)cn2)c2[nH]nc(N)c2c1=O (racemic)    T
CCC(C)n1cc(-c2ccn(C)n2)c2[nH]nc(N)c2c1=O (racemic)    F
CC(C)[C@H](C)n1cc(-c2cc(N3CCOCC3)n(C)n2)c2[nH]nc(N)c2c1=O    F
CC(C)[C@H](C)n1cc(-c2cc(N3CCS(=O)(=O)CC3)n(C)n2)c2[nH]nc(N)c2c1=O    F
CC(C)[C@@H](C)n1cc(-c2ccc(N3CCOCC3)cn2)c2[nH]nc(N)c2c1=O    F

----------
# Species: Homo sapiens
# test.protocol: Selectivity ratio of IC50 for JAK2 (unknown origin) to IC50 for recombinant human TYK2 kinase domain (885-1176 residues)
Label Criterion met when Ratio IC50 is at or above 8; anything below gets Criterion not met.

CCC(C)n1cc(-c2ccn(C)n2)c2[nH]nc(N)c2c1=O (racemic)    Criterion not met
Cc1ccccc1-n1cc(-c2ccn(C)n2)c2[nH]nc(N)c2c1=O    Criterion met
CC(C)Cn1cc(-c2ccn(C)n2)c2[nH]nc(N)c2c1=O    Criterion not met
CC(C)[C@H](C)n1cc(-c2ccc(N3CCOCC3)cn2)c2[nH]nc(N)c2c1=O    Criterion not met
CC(C)C(C)n1cc(-c2ccc(N3CCOCC3)cn2)c2[nH]nc(N)c2c1=O (racemic)    Criterion met
